- Tested on: HeLa cells
- ASSAY METHOD TEXT: Cell cycle assay in HeLa cells
- Format: cell-based, human
- ASSAY CONTEXT: HeLa cells, 150 nM, 48 hours, relative to untreated control
- Method: In some embodiments, HeLa cells were plated on collagen-coated 24-well plates at 50,000-60,000 cells per well, and allowed to attach to wells overnight. […] In some embodiments, HeLa cells were also treated with oligomeric compounds targeting miRNAs. […] The cell cycle profile was analyzed with the ModFit program (Verity Software House, Inc., Topsham Me.). […]
In the oligonucleotide strings, read from the 5' end, every base follows the letter of its sugar. An asterisk marks phosphorothioate; unmarked linkages are phosphodiester. Other units and linkages are bracketed, terminal groups are in braces. A string of capitals states the bases alone. e = 2'-O-(2-methoxyethyl) (MOE); [5mC] = 5-methylcytosine
Provide the reported % cells in cell cycle phase aneuploid of each item.
Express it in %; write the number only.

Q) Dear colleague, I am looking for the recorded % cells in cell cycle phase aneuploid of the following substance: 338666 (antisense TCACGTGGAGAGGAGTTAAA; all 2'-MOE, all phosphorothioate, methylation of C not given here) [compound 338666]
A) 151

Q) Dear colleague, I am looking for the recorded % cells in cell cycle phase aneuploid of the following substance: 327905 (antisense e[5mC]*eA*eG*eA*e[5mC]*eT*e[5mC]*e[5mC]*eG*eG*eT*eG*eG*eA*eA*eT*eG*eA*eA*eG*eG*eA) [compound 327905]
A) 164

Q) Dear colleague, I am looking for the recorded % cells in cell cycle phase aneuploid of the following substance: 327896 (antisense eA*e[5mC]*eA*eG*eT*eT*e[5mC]*eT*eT*e[5mC]*eA*eA*e[5mC]*eT*eG*eG*e[5mC]*eA*eG*e[5mC]*eT*eT) [compound 327896]
A) 144

====

Provide the reported PPAR gamma mRNA of each item.
- Test system: PPARγ
- ASSAY METHOD TEXT: PPARγ mRNA expression in adipocytes (real-time PCR)
- Type: cell-based, human
- ASSAY CONTEXT: differentiating adipocytes transfected with oligomeric compound; Table 75
In the oligonucleotide strings, read from the 5' end, every base follows the letter of its sugar. An asterisk marks phosphorothioate; unmarked linkages are phosphodiester. Other units and linkages are bracketed, terminal groups are in braces. A string of capitals states the bases alone. e = 2'-O-(2-methoxyethyl) (MOE); [5mC] = 5-methylcytosine

Q) Lookup: PPAR gamma mRNA / PPARγ / 328136 (eA*eA*e[5mC]*eT*eA*e[5mC]*eT*eT*e[5mC]*e[5mC]*eA*eG*eA*eG*e[5mC]*eA*eG*eG*eT*eG*eA; anti-miR) [compound 328136]
A) 54 percentage of untreated control (UTC)

Q) Lookup: PPAR gamma mRNA / PPARγ / 328098 (antisense eG*eA*eG*eA*eA*eT*e[5mC]*eA*eA*eT*eA*eG*eG*eG*e[5mC]*eA*eT*eG*e[5mC]*eA*eA) [compound 328098]
A) 54 percentage of untreated control (UTC)

Q) Lookup: PPAR gamma mRNA / PPARγ / 340350 (antisense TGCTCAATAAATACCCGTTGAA; all 2'-MOE, all phosphorothioate, methylation of C not given here) [compound 340350]
A) 59 percentage of untreated control (UTC)

Q) Lookup: PPAR gamma mRNA / PPARγ / 327896 (antisense eA*e[5mC]*eA*eG*eT*eT*e[5mC]*eT*eT*e[5mC]*eA*eA*e[5mC]*eT*eG*eG*e[5mC]*eA*eG*e[5mC]*eT*eT) [compound 327896]
A) 52 percentage of untreated control (UTC)

Q) Lookup: PPAR gamma mRNA / PPARγ / 328110 (antisense eG*eA*eT*eA*eA*eA*eG*e[5mC]*e[5mC]*eA*eA*eT*eA*eA*eA*e[5mC]*eT*eG*eT*e[5mC]*eA) [compound 328110]
A) 80 percentage of untreated control (UTC)

Q) Lookup: PPAR gamma mRNA / PPARγ / 328099 (antisense eA*eA*eG*eA*eA*e[5mC]*eA*eT*eT*eA*eA*eG*e[5mC]*eA*eT*e[5mC]*eT*eG*eA*e[5mC]*eA) [compound 328099]
A) 72 percentage of untreated control (UTC)

Q) Lookup: PPAR gamma mRNA / PPARγ / 328129 (antisense eA*eG*e[5mC]*e[5mC]*eT*e[5mC]*e[5mC]*eT*eT*e[5mC]*eT*eT*e[5mC]*eT*e[5mC]*eG*eT*eA*e[5mC]*eT*eA) [compound 328129]
A) 59 percentage of untreated control (UTC)

Q) Lookup: PPAR gamma mRNA / PPARγ / 327906 (antisense eT*e[5mC]*eA*eT*eA*eG*e[5mC]*e[5mC]*e[5mC]*eT*eG*eT*eA*e[5mC]*eA*eA*eT*eG*e[5mC]*eT*eG*e[5mC]*eT) [compound 327906]
A) 50 percentage of untreated control (UTC)

Q) Lookup: PPAR gamma mRNA / PPARγ / 327887 (antisense eG*e[5mC]*eG*eA*e[5mC]*e[5mC]*eA*eT*eG*eG*e[5mC]*eT*eG*eT*eA*eG*eA*e[5mC]*eT*eG*eT*eT*eA) [compound 327887]
A) 81 percentage of untreated control (UTC)

Q) Lookup: PPAR gamma mRNA / PPARγ / 328130 (antisense eA*e[5mC]*e[5mC]*eT*e[5mC]*eA*eG*eG*eT*eG*eG*eT*eT*eG*eA*eA*eG*eG*eA*eG*eA) [compound 328130]
A) 77 percentage of untreated control (UTC)

Q) Lookup: PPAR gamma mRNA / PPARγ / 346693 (CCCUCUGGUCAACCAGUCACA; all 2'-MOE, all phosphorothioate, methylation of C and T or U not given here) [compound 346693]
A) 81 percentage of untreated control (UTC)

Q) Lookup: PPAR gamma mRNA / PPARγ / 327965 (antisense eA*eT*e[5mC]*eA*e[5mC]*eA*eT*eA*eG*eG*eA*eA*eT*eA*eA*eA*eA*eA*eG*e[5mC]*e[5mC]*eA*eT*eA) [compound 327965]
A) 91 percentage of untreated control (UTC)

Q) Lookup: PPAR gamma mRNA / PPARγ / 327897 (antisense eA*e[5mC]*eA*eG*eG*e[5mC]*e[5mC]*eG*eG*eG*eA*e[5mC]*eA*eA*eG*eT*eG*e[5mC]*eA*eA*eT*eA) [compound 327897]
A) 66 percentage of untreated control (UTC)

Q) Lookup: PPAR gamma mRNA / PPARγ / 346917 (CAGCUAUGCCAGCAUCUUGCCU; all 2'-MOE, all phosphorothioate, methylation of C and T or U not given here) [compound 346917]
A) 31 percentage of untreated control (UTC)

Q) Lookup: PPAR gamma mRNA / PPARγ / 341795 (antisense AACCAAUGUGCAGACUACUGUA; all 2'-MOE, all phosphorothioate, methylation of C and T or U not given here) [compound 341795]
A) 74 percentage of untreated control (UTC)

Q) Lookup: PPAR gamma mRNA / PPARγ / 344338 (antisense AUGCCCUUUUAACAUUGCACUG; all 2'-MOE, all phosphorothioate, methylation of C and T or U not given here) [compound 344338]
A) 91 percentage of untreated control (UTC)

Q) Lookup: PPAR gamma mRNA / PPARγ / 328091 (antisense eG*e[5mC]*eT*eG*e[5mC]*e[5mC]*eG*eT*eA*eT*eA*eT*eG*eT*eG*eA*eT*eG*eT*e[5mC]*eA) [compound 328091]
A) 85 percentage of untreated control (UTC)

Q) Lookup: PPAR gamma mRNA / PPARγ / 328100 (antisense eA*eA*eT*e[5mC]*eT*e[5mC]*eT*eG*e[5mC]*eA*eG*eG*e[5mC]*eA*eA*eA*eT*eG*eT*eG*eA) [compound 328100]
A) 48 percentage of untreated control (UTC)
